- System: HT-29 cells
- test name: Inhibition test for sphere-forming ability of cancer cells (Test Example 1), HT-29
- Type: cell-based, human
- applied conditions: concentration for 50% inhibition of cell proliferation, read-out: IC50 (μmol/L) HT-29 (Sphere IC50 value)
- Text: The reliable methods established for measuring the self-renewal ability of cells which is one of the CSC's properties include a method for measuring the sphere-forming ability of cancer cells in non-adherent condition in the absence of serum (Cancer Res 65, 5506-5511 (2005)). Human colorectal cancer-derived HCT-116 cells, human colon-adenocarcinoma-derived HT-29 cells, and human pharyngeal cancer-derived FaDu cells were available from American Type Culture Collection (ATCC). […]
# Lookup of reported IC50 keyed by entry
Please state the figure in µmol/L; there is no need to write the unit.

Solved entries:
O=C(/C=C/c1cccc(Br)c1)Nc1cn(Cc2cccc(Cl)c2)cn1 :: 6.62
Cc1cccc(/C=C/C(=O)Nc2cn(Cc3cccc(Cl)c3)cn2)c1 :: 1.49
O=C(/C=C/c1cccc(Cl)c1)Nc1cn(Cc2cccc(Cl)c2)cn1 :: 4.89

For the compound COc1cc(C(=O)Nc2cn(Cc3cccc(C(F)(F)F)c3)cn2)cnc1Cl , give its measured IC50 value. 4.17

For the compound O=C(Nc1cn(Cc2cccc(Cl)c2)cn1)c1ccc2nccn2c1 , give its measured IC50 value. 3.43

====

- test name: Pharmacokinetic assay in tumor-bearing mice where HCT-116 cells were transplanted (Test Example 3)
- Type: in vivo
- applied conditions: female, BALB/cAnNCrlj-nu/nu, plasma; tumor-bearing nude mouse, oral single dose 60 mg/kg, 0.5% methylcellulose, 6 hours; read-out: Plasma concentrations after oral administration, 6 hours
property label: concentration at 6 h (ng/mL)
Please state the figure in ng/mL; there is no need to write the unit.

For the compound COc1ccc(C(=O)Nc2cn(Cc3cc(F)c(F)c(F)c3)cn2)cc1OC.Cl , give its measured concentration at 6 h value. 3390

====

- test name: Pharmacokinetic assay in tumor-bearing mice where HCT-116 cells were transplanted (Test Example 3)
- Assay type: in vivo
- applied conditions: female, BALB/cAnNCrlj-nu/nu, plasma; tumor-bearing nude mouse, oral single dose 150 mg/kg, 0.5% methylcellulose, 2 hours; read-out: Plasma concentrations after oral administration, 2 hours
- Protocol: A 7- to 12-week-old nude mouse (BALB/cAnNCrlj-nu/nu, female, CHARLES RIVER LABORATORIES JAPAN, INC.) received intradermal transplantation of human colorectal cancer-derived HCT-116 cells (ATCC) in an amount of 3×10^6 cells/mouse around the ventral part. […] Blood was collected 1, 2, 6, and 24 hours after administration, and centrifuged to afford plasma samples. […] Then, the test compound was detected and quantitated with LC-MS/MS (API4000, AB SCIEX). […]
property label: concentration at 2 h (ng/mL)
Please state the figure in ng/mL; there is no need to write the unit.

For the compound O=C(/C=C/c1cccnc1)Nc1cn(Cc2cccc(Cl)c2)cn1 , give its measured concentration at 2 h value. 7040

====

- System: HT-29 cells
- test name: Inhibition test for sphere-forming ability of cancer cells (Test Example 1), HT-29
- Assay type: cell-based, human
- applied conditions: concentration for 50% inhibition of cell proliferation, read-out: IC50 (μmol/L) HT-29 (Sphere IC50 value)
# Lookup of reported log10(IC50) keyed by entry
Could you please treat all values as log10 of IC50 in µmol/L?

Solved entries:
COc1ccc(NC(=O)c2cn(Cc3cccc(Cl)c3)cn2)cn1 :: 0.93
O=C(/C=C/c1ccccn1)Nc1cn(Cc2cccc(Cl)c2)cn1 :: 0.88
Cc1ccc(/C=C/C(=O)Nc2cn(Cc3cccc(Cl)c3)cn2)cc1 :: -1.22
CN(C)CCOc1ccc(C(=O)Nc2cn(Cc3cccc(Cl)c3)cn2)cn1 :: 0.38
O=C(/C=C/c1ccc(O)c(F)c1)Nc1cn(Cc2cccc(Cl)c2)cn1 :: 0.79
COc1ccc(C(=O)Nc2cn(Cc3cccc(Cl)c3)cn2)cn1 :: 0.75
COc1ccc(C(=O)Nc2cn(Cc3ccc(F)cc3)cn2)cc1OC :: -0.13
COc1ccc(C(=O)Nc2cn(Cc3cccc(C(F)(F)F)c3)cn2)cn1 :: 0.69
O=C(Nc1cn(Cc2cccc(C(F)(F)F)c2)cn1)c1ccc(OCC(F)(F)F)nc1 :: -0.05
O=C(/C=C/c1ccc(NCC(F)(F)F)nc1)Nc1cn(Cc2cccc(Cl)c2)cn1 :: -1.22

Proceeding to the next compound to report its log10(IC50).
For the compound O=C(Nc1cc(-c2ccccc2)n[nH]1)c1cn(Cc2cccc(Cl)c2)cn1 , give its measured log10(IC50) value. -0.13
